B1: Neutrophil cytosol factor 2, residues 456 to 514; numbered along this chain, P19878 (parent)
chain: LKKGSQVEALFSYEATQPEDLEFQEGDIILVLSKVNEEWLEGECKGKVGIFPKVFVEDC

- Variants of: B1
- PROTOCOL_DETAILS: abundance fitness (aPCA) (normalised: wild type 0, dead -1); higher = more abundant; growth selection in yeast, the domain comes from the species named
- STUDY_CONDITIONS: Homo sapiens

[
  {
    "SEQUENCE": "LKKGSQVEALFSYEATQPEDLEHQEGDIILVLSKVNEEWLEGECKGKVGIFPKVFVEDC [F23H]",
    "abundance fitness": -0.117
  },
  {
    "SEQUENCE": "LKKGSQVFALFSYEATQPEDLEFQEGDIILVLSKVNEEWLEGECKGKVGIFPKVFVEDC [E8F]",
    "abundance fitness": 0.452
  },
  {
    "SEQUENCE": "LKKGSQVEALFSYEATQPEDLEFQEGDIILVLSKDNEEWLEGECKGKVGIFPKVFVEDC [V35D]",
    "abundance fitness": -0.588
  },
  {
    "SEQUENCE": "LKKGSQVEALFSYEATQPEDLEFQEGDIILVLSKVNEEWLEGECKIKVGIFPKVFVEDC [G46I]",
    "abundance fitness": -0.615
  },
  {
    "SEQUENCE": "LKKGSQVEALFSYEATQPEDLEFQEGDIILVLSKVNEEWLEGECKGKVGIFPYVFVEDC [K53Y]",
    "abundance fitness": -0.722
  },
  {
    "SEQUENCE": "LKKGSQVEALFSYEATQPEDLEFQEGDIILVLSKVNEEWLEGECKGKVGGFPKVFVEDC [I50G]",
    "abundance fitness": -0.347
  },
  {
    "SEQUENCE": "LKKGSQVEALFSYEATQPEDLEFQEGDIILVLSKVNEEWLEGECEGKVGIFPKVFVEDC [K45E]",
    "abundance fitness": -0.905
  },
  {
    "SEQUENCE": "LKKGSQVEALFSYEATQPEDLEFQEGDIILVLSYVNEEWLEGECKGKVGIFPKVFVEDC [K34Y]",
    "abundance fitness": -0.589
  },
  {
    "SEQUENCE": "LKRGSQVEALFSYEATQPEDLEFQEGDIILVLSKVNEEWLEGECKGKVGIFPKVFVEDC [K3R]",
    "abundance fitness": -0.397
  },
  {
    "SEQUENCE": "LKKGSQVEALFSYEATQPEDLEFQEGDIILVLSKVNEEWLEGECKGKVGIFPKVFLEDC [V56L]",
    "abundance fitness": -0.589
  },
  {
    "SEQUENCE": "LKKGSRVEALFSYEATQPEDLEFQEGDIILVLSKVNEEWLEGECKGKVGIFPKVFVEDC [Q6R]",
    "abundance fitness": 0.028
  },
  {
    "SEQUENCE": "LKKGSQVEALFSYEATQPEDLEFQEGDIILVLSKVNEEWLEGEYKGKVGIFPKVFVEDC [C44Y]",
    "abundance fitness": -0.478
  },
  {
    "SEQUENCE": "LKKGSQVEALFSYEATQPEDLEFQEGDIELVLSKVNEEWLEGECKGKVGIFPKVFVEDC [I29E]",
    "abundance fitness": -0.392
  },
  {
    "SEQUENCE": "LKKGSQVEALFSYEATQPEDLEFQEGDIILVLSKVNEEWLEGECKGKVGIFPKVFVLDC [E57L]",
    "abundance fitness": -0.505
  },
  {
    "SEQUENCE": "LKKGSQVEALFSYEATQPEDLEFQEGDIILVLSKVNEEWLEGECKGQVGIFPKVFVEDC [K47Q]",
    "abundance fitness": -0.856
  },
  {
    "SEQUENCE": "LKKGSQVEALFSYEATQPEDLEFQEGDIILVLSKVNEEWLEGECKGKVGIFPKVFVEDP [C59P]",
    "abundance fitness": 0.078
  },
  {
    "SEQUENCE": "LKKGSQVEALFSYEATQPEDLEFQEGDIILVLSKVNEEWLEGECKGKVGIPPKVFVEDC [F51P]",
    "abundance fitness": -0.924
  },
  {
    "SEQUENCE": "LKKGSQVEALFSYEATQPEDLEFQEGDIILVLSKVNEEWLEGECIGKVGIFPKVFVEDC [K45I]",
    "abundance fitness": -0.937
  },
  {
    "SEQUENCE": "LKKGSQVEALFSYEATQPEDLEFQEGDIILVLSKVNEEWLEGECKGKVGIFPKVFGEDC [V56G]",
    "abundance fitness": -0.713
  },
  {
    "SEQUENCE": "LKKGSQVRALFSYEATQPEDLEFQEGDIILVLSKVNEEWLEGECKGKVGIFPKVFVEDC [E8R]",
    "abundance fitness": 1.16
  }
]
